Cited source: paper PMC3428850

Experiment: plasma pharmacokinetics following different routes of administration
Assay type: in vivo, Balb C mice
Settings: female, Balb C, mouse, po, 10 mg/kg
outcome measure: AUC(0-inf) (ng·h/mL)
Provide only the numeric value, understood in ng·h/mL.

Q. State the recorded AUC(0-inf) for this entry: CCN1CCN(CC(=O)Nc2ccc(-c3cccc4c(=O)cc(N5CCOCC5)oc34)c3sc4ccccc4c23)CC1 [KU-0060648]
A. 4780

###

Assay: plasma pharmacokinetics following different routes of administration
Format: in vivo, Balb C mice
Settings: female, Balb C, mouse, ip, 10 mg/kg
outcome measure: AUC(0-inf) (ng·h/mL)
Provide only the numeric value, understood in ng·h/mL.

Q. State the recorded AUC(0-inf) for this entry: CCN1CCN(CC(=O)Nc2ccc(-c3cccc4c(=O)cc(N5CCOCC5)oc34)c3sc4ccccc4c23)CC1 [KU-0060648]
A. 3150
